System: Streptococcus sp. 'group A'
Test: Streptococcus pyogenes SK(-)GAS viability under kanamycin – luminescence, BacTiterGlo, confirmation, counter-screen for streptokinase expression inhibitor project, dose response (AID 1900)
Format: functional, organism-based
The source made the active and inactive calls. Cut-off read from the data, not from the text of the source: actives have a measured EC50 and inactives only a lower limit.
measured.parameter: EC50

Here's what some known entries look like.
>  <molecule>
FC(F)(F)c1cc(-c2ccco2)nc(NCc2ccc(Cl)cc2)n1

>  <result>
8.27 µM (active)

$$$$
>  <molecule>
Cc1cc(N2C(=O)C(O)=C(C(=O)c3cc4ccccc4o3)C2c2ccc(Br)cc2)no1 (configuration not stated)

>  <result>
2.01 µM (active)

$$$$

Attention now turns to another entry.
# value lookup — system Streptococcus sp. 'group A', readout EC50, item Cc1csc2nc(CSc3nc4ccccc4o3)c(Br)n12
45.5 µM (active)
